Experiment: NCI Yeast Anticancer Drug Screen. Data for the mlh1 rad18 strain (AID 175)
Details: S. cerevisiae mlh1 rad18 strain growth inhibition; at 50.0 µM
The panel holds about 79,000 compounds, 15% with a hit somewhere; the sample as a whole holds those more often. Activity calls are given as the source filed them. Cut-off read from the data, not from the text of the source: active = growth inhibition above about 70%; inactive = the rest.
Would you mind answering with one of these outcomes? true = active, false = inactive

Please share the test call associated with NC(CCS(N)(=O)=O)C(=O)O (stereo not given) .
false

How about `Cc1nc2ccccc2c(=O)n1-c1ccc(-c2nnc(Sc3nnc(-c4ccc(-n5c(C)nc6ccccc6c5=O)cc4)n3-c3ccccc3)n2-c2ccccc2)cc1` ?
false

How about `Cc1nc(CCCCCCCC(=O)O)ccc1O` ?
false

How about `O=C(Nc1ccccc1)c1cc2ccccc2oc1=O` ?
false

How about `CCOC(=O)C1CCN(S(=O)(=O)c2ccccc2)CC1` ?
false

How about `CC(=O)Nc1ccc(/C=C/C(=O)c2sc(-c3cccnc3)nc2C)cc1` ?
false

How about `COc1ccccc1CNCc1nc2ccccc2[nH]1` ?
false

How about `COc1cc([C@H]2c3[nH]c4ccccc4c3C[C@H]3COC(=O)N32)cc(OC)c1O` ?
false

How about OCC1OC(Oc2ccccc2)C(O)C(O)C1O (stereo not given) ?
false

How about Cc1ccc(-n2cc(-c3ccc(Cl)cc3)c3c2N=CN2NC(c4ccco4)=NC32)cc1 (stereo not given) ?
false

How about `COc1ccc(C2=C(c3ccccc3)C(=O)C(c3ccccc3)=C2c2ccccc2)cc1` ?
false

How about C/C=C1/CN2CCc3c([nH]c4ccccc34)C2CC1C(Cc1c[n+]2c(c3[nH]c4ccccc4c13)CC1C(C(=O)OC)=COC(C)C1C2)C(=O)OC (stereo not given) ?
false

How about `CC(/C=C/C(=O)c1sc(C(N)=S)nc1C)=C\c1ccccc1` ?
false

How about Cc1cccc(N=C2NC(=O)C(CC(=O)Nc3ccc(Cl)cc3C)S2)c1 (stereo not given) ?
false

How about `CC(C)(N)C(=O)O` ?
false

How about O=C1OC(c2cccc3ccc(Br)cc23)c2ccccc21 (stereo not given) ?
false

How about `O=S(=O)(c1ccccc1)c1cccc2c[n+]3ccccc3cc12` ?
false

How about `N#CCCN(CCC#N)c1ccc(C=Nc2ccc(F)cc2)cc1` ?
false

How about `CCCc1cc(C(=O)OC/C(C)=N/O)c2ccccc2n1` ?
false

How about `O=c1[nH]c2nc[nH]c(=O)c2[nH]1` ?
false

How about `CN(CCNC(=O)NC1CCCCC1)c1ccccc1` ?
false

How about `CC(=O)c1ccc(C(=O)c2cccnc2)cc1` ?
false

How about `Nc1cccc(OCCOc2ccccc2[N+](=O)[O-])c1` ?
false

How about C#CC(OC(=O)NC(C(=O)OC)C(C)C)(c1ccccc1)c1ccccc1 (stereo not given) ?
false

How about `COc1ccccc1/C=C/C(=O)c1sc(-c2cccnc2)nc1C` ?
false

How about `c1cc(N2CCOCC2)ccc1Cc1ccc(N2CCOCC2)cc1` ?
false

How about `O=C(NSNc1ccccc1)c1ccccc1` ?
false

How about O=C1/C(=C/c2ccc(Cl)cc2)CCC1CNc1ccc(Cl)cc1 (stereo not given) ?
false

How about `CCOC(=O)C(C(=O)OC(c1ccccc1)c1ccccc1)(C(c1ccccc1)c1ccccc1)C(c1ccccc1)c1ccccc1` ?
false

How about `O=C1/C(=C/c2ccccc2)Oc2cc(O)ccc21` ?
false

How about `CCCCCCC(=O)/C=C/c1ccc(OCc2ccccc2)c(OCc2ccccc2)c1` ?
false

How about C=C1CCC2[C@](C)(CCC[C@]2(C)C(=O)O)[C@@H]1CCc1ccoc1 (stereo not given in full) ?
true

How about `COc1ccc(C=C(c2ccc(OCc3ccccc3)cc2)c2ccc(OCc3ccccc3)cc2)cc1` ?
false

How about `COc1cc2c(cc1OC)-c1ccc3cc4c(cc3c1N(C)C2)OCO4` ?
false

How about `O=c1[nH]cnc2c1nnn2CCCCCCCCCCCCn1nnc2c(=O)[nH]cnc21` ?
false

How about `CN(Cc1cccc(Cl)c1)C(=O)NC(C)(C)C` ?
false

How about `O=C1c2ccccc2C(=O)c2cc(N=Nc3c(O)ccc4ccccc34)ccc21` ?
false

How about COC(=O)c1c([N+](=O)[O-])ncn1C1CC(OC(C)=O)C(COC(C)=O)O1 (stereo not given) ?
false

How about `Nc1ncccc1C(=O)O` ?
false

How about CC(=O)OCC1OC(OCC(OC(C)=O)C(OC(C)=O)C(OC(C)=O)c2cnn(-c3ccccc3)n2)C(OC(C)=O)C(OC(C)=O)C1OC(C)=O (stereo not given) ?
false

How about CCCCC1(O)CC2CC1C(C)C2(C)C (stereo not given) ?
false

How about `Nc1nc(-c2ccccc2)cc2ccccc12` ?
false

How about COc1ccc2c(c1)C(=O)C1CC(=O)CCC21 (stereo not given) ?
false

How about `C[C@@H](O)[C@H](NSc1ccccc1[N+](=O)[O-])C(=O)NCCc1nc(-c2nc(C(=O)NCCCBr)cs2)cs1` ?
false

How about CCN(CC)CCCC(C)NCc1ccnc2cc(Cl)ccc12 (stereo not given) ?
false

---

Assay: NCI Yeast Anticancer Drug Screen. Data for the cln2 rad14 strain (AID 165);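 note: 0% = growth equal to vehicle treated cultures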
Details: S. cerevisiae cln2 rad14 strain, at 50.0 µM, stronger effect = higher value
Compounds without any hit were thinned out: in the full panel of roughly 79,000, 15% have a hit.
Kindly return True if reported growth inhibition is no lower than -20%; return False if it is lower.

Answer whether growth inhibition of `CCCCCCCC(=O)Oc1cccc(C)c1` is greater than or equal to -20%.
True

How about CC(=O)OC1CCC2(C)OC(=O)CC2C1 (stereo unspecified) ?
False

How about COc1ccc(C(=O)C(C(=O)CCC(=O)Nc2cccc(Cl)c2)c2ccc(OC)cc2)cc1 (stereo unspecified) ?
True

How about `O=C(Nc1ccccc1[N+](=O)[O-])C(=O)Nc1ccccc1[N+](=O)[O-]` ?
False

How about `CC(=S)NC=C(C(N)=O)C(N)=O` ?
True

How about COC1(OC)C(c2ccc([N+](=O)[O-])cc2)C([N+](=O)[O-])C1(OC)OC (stereo unspecified) ?
True

How about CC1=CC(/C=C(\C)CCCc2ccoc2)C2(OC(=O)C(C)=C2O)[C@H]2C1CC[C@@H]2C (stereo partly specified) ?
True

How about `O=C(Cn1c2c(c3ccccc31)CCCC2)NC1CCCCC1` ?
True

How about `O=C(NC(O)(C(F)(F)F)C(F)(F)F)c1ccccc1` ?
True

How about `O=[N+]([O-])c1cccc(CC(=S)N2CCOCC2)c1` ?
False

How about `CC(=O)Oc1cc(OC(C)=O)c2c(c1C)CC[C@@H]1[C@@H]2CC[C@]2(C)[C@@H](OC(C)=O)CC[C@@H]12` ?
True

---

I'd be grateful if you could share measured growth inhibition for these entries.
Assay: NCI Yeast Anticancer Drug Screen. Data for the sgs1 mgt1 strain (AID 161);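 note: 0% = growth of cultures given vehicle only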
Conditions: S. cerevisiae sgs1 mgt1 strain, at 50.0 µM, stronger effect = higher value
Experimental: Growth inhibition of yeast strains with defined genetic alterations is measured as a screen for potential anti-cancer activity. Selected strains with alterations in DNA damage repair or cell cycle control were exposed to compounds and growth inhibition was measured relative to vehicle treated controls. The strain used in this assay is sgs1 mgt1
Compounds without any hit were thinned out: in the full panel of roughly 79,000, 15% have a hit. Where a SMILES comes first, the peptide text is derived from it. The star is where a group is joined. Cbz = O=C(OCc1ccccc1)*
Answer with a number only, understood to be in %.

Entry `Nc1nc2c(c(=O)[nH]1)CN(CCCN1CCOCC1)CN2` has what growth inhibition?
-19.1

How about `C/C(=C/OS(=O)(=O)C(F)(F)F)c1ccccc1` ?
-3.2

How about `Cc1ccccc1NC(=O)C(=O)Cc1nc2ccccc2s1` ?
-1.5

How about O=C1CC(c2ccccc2)C(c2ccccc2)C1C(=O)OCCc1ccccc1 (stereo not drawn) ?
2.45

How about `Cc1ccncc1.[O]=[Ge].[O]=[Ge].[O]=[Ge].[O]=[Ge].[O]=[Ge].[O]=[Ge][OH].[O]=[Ge][OH]` ?
-42.5

How about `COc1ccc(N/N=C(/c2ccccc2)c2noc(-c3ccccc3)n2)cc1` ?
88.8

How about O=C1O[C@H]2C3C4CCC(C4[C@@H]2I)[C@H]13 (stereo partly drawn) ?
-9.1

How about `CCOc1c[n+](C)c(/C=C/c2ccccc2)s1` ?
-3.25

How about `N#C/C(=C\NC(N)=S)c1nc2ccccc2s1` ?
-15.8

How about `O=C(O)CN1CCN(CC(=O)O)CCN(CC(=O)O)CCN(CC(=O)O)CC1` ?
2.9

How about CS(=O)(=O)CC(O)c1ccccc1 (stereo not drawn) ?
2.95

How about COC(=O)c1ccccc1CC1Cc2ccc3c(c2C1)CCC3 (stereo not drawn) ?
-1.65

How about `Clc1ccc(CSc2nnc(SCc3ccc(Cl)c(Cl)c3)c3[nH]cnc23)cc1Cl` ?
47.4

How about `O=S(=O)(SC1=NCCN1)c1ccc2ccccc2c1` ?
-15.1

How about CC(C=O)C1CCCCC1 (stereo not drawn) ?
0.6

How about `O=c1[nH]cc(NCCc2ccccc2)c(=O)[nH]1` ?
-17.4

How about CCOC(=O)CCC(NC(=O)C(CCC(=O)OCC)NC(=O)OCc1ccccc1)C(=O)O (stereo not drawn) (tested in a mixture with another compound) (Cbz-Glu(OEt)-Glu(OEt)-OH; configuration not given here) ?
-11.2

How about `Cc1ncc([N+](=O)[O-])cc1C(=O)O` ?
-0.75

How about `CN(C)c1ccc(C=Nc2cc(Cl)ccc2O)cc1` ?
37.4

How about `Cc1nc(CC#N)n[nH]1` ?
17.1

How about CCOC(=O)c1cn(C)c2c1C(=O)C(C(=O)OCC)CC(=O)N2 (stereo not drawn) ?
-11.6

How about `O=[N+]([O-])c1ccc(-c2ccccc2-c2ccccc2)cc1` ?
8.25

How about COc1ccc(OC(C)C(=O)O)cc1 (stereo not drawn) ?
3.5
